Data origin, for the record: PubChem BioAssay (NCATS)

System: Dd2
run.description: qHTS profiling for inhibitors of Plasmodium falciparum proliferation (AID 504749); further: nearly all actives have a fitted effect of over 60% in size
measurement.setup: P. falciparum in erythrocytes, SYBR Green DNA, 72 h; series mostly up to 28.7 µM
Inconclusive results are not listed. Calls of active or inactive are those of the source. The call rests on the fitted dose curve; in most records, active means well fitted inhibition curve with a large enough effect; inconclusive means small, poorly fitted or top-dose-only effect; inactive means flat fitted curve, though single readings scatter.
Response enum: active, inactive

Here are 5 compounds together with their reported answers.
C[C@@]12CCC(=O)C=C1C=C[C@H]1[C@H]3CC[C@](O)(CCC(=O)O)[C@]3(C)CC[C@@H]12; inactive
C[C@]12CC[C@H]3[C@@H](CCC4=CC(=O)CC[C@@]43C)[C@@H]1CC[C@@H]2O; inactive
O=[As]O[As]=O (centres undefined); active
CO[C@@H](COC(N)=O)C1=C(N2CC2)C(=O)C(C)=C(N2CC2)C1=O; active
C[N+]1([O-])[C@@H]2CC(OC(=O)[C@@H](CO)c3ccccc3)C[C@@H]1[C@H]1O[C@H]12 (some centres undefined); inactive

Query: recorded result category for ClC1=C(Cl)C2(Cl)C3C4CC(C5OC45)C3C1(Cl)C2(Cl)Cl (centres undefined) in this test
Reply: inactive

Query: recorded result category for CNc1ccc(C(=O)CC(O)CCC(C)C2OC(=O)CC(O)CC(=O)CC(O)CC(O)CC(O)CC(O)CC3(O)CC(O)C(C(=O)OC)C(CC(O[C@@H]4OC(C)C(O)C(N)C4O)/C=C/C=C/C=C/C=C/C=C/C=C/C=C/C2C)O3)cc1 (some centres undefined) in this test
Reply: inactive

Query: recorded result category for CC(C)c1c(CN(C)[C@@H](C)Cc2ccccc2)n(C)n(-c2ccccc2)c1=O in this test
Reply: inactive

Query: recorded result category for [Hg+][c]1ccccc1 in this test
Reply: inactive
